tested on: DU-145 prostate; assay: NCI-60 one-dose screen, 48 h; settings: 10 µM unless noted
The panel holds about 83,000 compounds, 20% with a hit somewhere; the sample as a whole holds those more often. The source made the active and inactive calls. How the source made its calls: active means growth percent below 10; inactive means the rest.
The reply should name one outcome from active, inactive

molecule | cat
CCOc1ccccc1-n1c(CN2CCN(C(=O)COc3ccc(CNCCCCCCN4C5CCCC4CC(OC(=O)Nc4cc(C)ccc4OC)C5)cc3)CC2)nc2ccccc2c1=O (stereo not given) | active

Could you now look at the following molecule, please?
Enquiry: Fill in: this test's call for `COc1cccc(-c2nc3sccn3c2-c2ccnc(NCCNS(=O)(=O)c3cccc(F)c3)c2)c1` is ___
Return: inactive

====

tested on: T-47D breast; assay: NCI-60 one-dose screen, 48 h; details: 10 µM unless noted
About 83,000 compounds went through this panel and 20% of them were active in at least one assay; those are over-represented in the sample as a whole. The source made the active and inactive calls. Rule for the calls: active = growth percent below 10; inactive = the rest.
The reply should name one outcome from 1 (active), -1 (inactive)

compound | cat
COc1cccc(-c2nc3sccn3c2/C=C/C(=O)c2ccc(C(F)(F)F)cc2)c1 | -1
COc1cc(C2CC(=O)Nc3c2c(C)nn3-c2nc3ccccc3[nH]2)cc2c1OCC(=O)N2 (stereo not drawn) | -1
COc1cc(/C=C/C(=O)c2c(C)nc3ccccc3c2C)ccc1OCCCN1CCN(C(=O)c2ccco2)CC1 | -1
N#Cc1c(N)nn(C(=O)c2ccc(NC(=O)c3ccccn3)cc2)c1-c1ccc(Cl)cc1 | 1

Enquiry: Fill in: this test's call for COc1cc(C2CC(c3ccc(Nc4ccnc5cc(Cl)ccc45)cc3)=NN2C=O)cc(OC)c1OC (stereo not drawn) is ___
Return: -1

Enquiry: Fill in: this test's call for `CC1(C)CC[C@]2(C(=O)N3CCOCC3)CC[C@]3(C)C(=CC[C@@H]4[C@@]5(C)CC[C@H](OC(=O)c6cccnc6)C(C)(C)[C@@H]5CC[C@]43C)[C@@H]2C1` is ___
Return: -1

Enquiry: Fill in: this test's call for `CCCc1cc2c(=O)c(C(=O)OC)c[nH]c2cc1N(CC)CC` is ___
Return: -1

Enquiry: Fill in: this test's call for N#Cc1c2c(nn(-c3ccccc3)c1=O)C(O)=C([N+](=O)[O-])C(c1ccccc1)C2 (stereo not drawn) is ___
Return: -1

====

test system: SF-268 CNS; assay: NCI-60 one-dose screen, 48 h (100 = growth as untreated, 0 = no growth, -100 = all killed); conditions: 10 µM unless noted
This is part of a sample that, as a whole, favours compounds with a hit. Of some 83,000 tested, about 20% had one in any assay.
What growth was measured for each of the following?
Numbers only, in %.

molecule | measure | quantitative.readout
COc1ccc(OC)c(-c2c(C#N)c(-c3ccc(Cl)cc3)nc3c2c(-c2ccccc2)nn3-c2ccccc2)c1 | growth | 96
COc1ccc(N2CCN(c3nc(-c4cc(OC)c(OC)c(OC)c4)nc4ccccc34)CC2)cc1 | growth | 87.7
Cc1cc(NCc2cc(Nc3ccnc4cc(Cl)ccc34)ccc2F)nc(N2CCN(c3ccccc3)CC2)n1 | growth | 65.3
CC(=O)OC1CCC2(C)C(=CC3C4CCC(=O)C4(C)CCC32)C1 (centres undefined) | growth | 96
CC1=C([Se]CC(OC(=O)[C@@H](CO)NC(=O)OC(C)(C)C)C(=O)NC(C)(C)C)C(=O)c2ccccc2C1=O (some centres undefined) | growth | -75.1

# map each molecule to its growth
1. COc1ccc2c(c1)CCCN2c1c2ccccc2nc2ccccc12
2. COC(=O)c1c2c(c(C)[n+]([O-])c1C)C(=O)C(NCc1ccc(F)c(Cl)c1)=CC2=O
3. COc1ccc(/C=C/c2c(C(=O)/C=C/c3cccs3)c(C)nc3ccccc23)cc1
4. O=C1/C(=C/c2ccc(F)cc2)C=C(c2ccccc2)N1CCc1ccccc1

Return:
1. 33.7
2. 9.33
3. 85.3
4. 74.2

# map each molecule to its growth
1. COC(=O)c1c2c(c(C)[n+]([O-])c1C)C(=O)C(NCc1ccc(F)cc1)=CC2=O
2. N#Cc1c(N)nn(C(=O)c2ccc(NC(=O)c3ccccn3)cc2)c1-c1ccc(Cl)cc1

Return:
23
-8.49
